Target: T1, extracellular domain of activin receptor type IIB (ActRIIBecd), biotinylated (Homo sapiens (Human), UniProt Q13705 27-117, amino-biotinylated with amine-PEG3-Biotin)
T1 construct: immobilised on a streptavidin-coated sensor chip; also called biotinylated ActRIIBecd; extracellular domain of ActRIIB
T1 sequence: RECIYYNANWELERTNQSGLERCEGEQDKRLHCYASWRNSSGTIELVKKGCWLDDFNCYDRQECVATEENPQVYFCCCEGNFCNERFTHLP
Test: Mean KD column of Table 5; method not restated (BIAcore as Example 5)
Give measured Kd for each item. Keep answers brief.
Answers are plain numbers, in nM.

Below are worked cases with known answers.
[
  {
    "Binder": "SEQ ID NO: 260, cysteine pairs C15-C15^b, C79-C114^b, C80-C112^b, C44-C48^a (designed binder, disulfides C15-C15 (inter), C79-C114 (inter), C80-C112 (inter), C44-C48 (intra), homodimer by intermolecular disulfide) AQAKHKQRKRLKSSCKRHPLYVDFSDVGWNDWIVAPPGYHAFYCHGECPFPLADHLNSTNHAIVQTLVNSVNSKIPKACCVPTELSAISMLYLDENEKVVLKNYQDMVVEGCGCR",
    "Metric": "Kd",
    "Unit Abbreviation": "nM",
    "Endpoint Result": 4.03
  },
  {
    "Binder": "SEQ ID NO: 308, cysteine pairs C8-C43^a, C9-C41^a, C88-C92^a (designed binder, disulfides C8-C43 (intra), C9-C41 (intra), C88-C92 (intra)) NSKDPKACCVPTELSAPSPLYLDENEKPVLKNYQDMVVHGCGCRGQAKRKGYKRLKSSCKRHPLYVDFKDVGWNDHAVAPPGYHAFYCHGECPFPLADHLNSDNHAIVQTKVNSV",
    "Metric": "Kd",
    "Unit Abbreviation": "nM",
    "Endpoint Result": 10.9
  },
  {
    "Binder": "SEQ ID NO: 276, cysteine pairs C67-C71^a (designed binder, disulfides C67-C71 (intra)) NSKIPKACCVPTELSAISMLYLDENEKVVLKNYQDMVVEGCGCRVDFSDVGWNDWIVAPPGYHAFYCHGECPFPLADHLNSTNHAIVQTLVNSVAQAKHKQRKRLKSSCKRHPLY",
    "Metric": "Kd",
    "Unit Abbreviation": "nM",
    "Endpoint Result": 7.41
  }
]

Shifting focus to the binder that follows.
Consider the binder shown here: SEQ ID NO: 292, cysteine pairs C44-C48^a (designed binder, disulfides C44-C48 (intra)) GQAKRKGYKRLKSSCKRHPLYVDFKDVGWNDHAVAPPGYHAFYCHGECPFPLADHLNSDNHAIVQTKVNSVNSKDPKACCVPTELSAPSPLYLDENEKPVLKNYQDMVVHGCGCR What is its recorded Kd?
7.81
